- TEST_NAME: Clinical study, relative bioavailability: plasma cladribine after oral formulations vs subcutaneous administration
- Assay type: in vivo, human (patients with MS)
- ASSAY_SETUP: human, sc, 3.0 mg subcutaneous, single dose, Geom Mean, n = 12
METRIC: Cmax (ng/mL)
One number for each entry, in ng/mL.

# input Would you mind telling me what Cmax value was observed for Nc1nc(Cl)nc2c1ncn2[C@H]1C[C@H](O)[C@@H](CO)O1 ?
# output 23.2

---

- TEST_NAME: Clinical study, relative bioavailability: plasma cladribine after oral formulations vs subcutaneous administration
- Assay type: in vivo, human (patients with MS)
- ASSAY_SETUP: human, sc, 3.0 mg subcutaneous, single dose, Mean ± SD, n = 12
METRIC: half-life
Give your result as the value with the unit written after it.

# input Would you mind telling me what half-life value was observed for Nc1nc(Cl)nc2c1ncn2[C@H]1C[C@H](O)[C@@H](CO)O1 [Cladribine, 2-chloro-2′-deoxyadenosine] ?
# output 6.69 h

---

- TEST_NAME: Clinical study, dose response and absolute bioavailability: plasma cladribine after oral doses vs intravenous infusion
- Format: in vivo, human (patients with MS)
- ASSAY_SETUP: human; Oral Administration 10.0 mg (Batch N0126 10.0 mg tablets), plasma, Geom Mean, n = 26
METRIC: Cmax (ng/mL)
One number for each entry, in ng/mL.

# input Would you mind telling me what Cmax value was observed for Nc1nc(Cl)nc2c1ncn2[C@H]1C[C@H](O)[C@@H](CO)O1 ?
# output 21.2

---

- TEST_NAME: Clinical study, dose response and absolute bioavailability: plasma cladribine after oral doses vs intravenous infusion
- Type: in vivo, human (patients with MS)
- ASSAY_SETUP: human; 3.0 mg IV infusion (1 hour), plasma, Mean ± SD, n = 26
METRIC: Tmax (min)
Numbers only, in min.

# input Would you mind telling me what Tmax value was observed for Nc1nc(Cl)nc2c1ncn2[C@H]1C[C@H](O)[C@@H](CO)O1 ?
# output 49

---

- TEST_NAME: Clinical study, dose response and absolute bioavailability: plasma cladribine after oral doses vs intravenous infusion
- Assay type: in vivo, human (patients with MS)
- ASSAY_SETUP: human; Oral Administration 3.0 mg (Batch N0120 3.0 mg tablets), plasma, Geom Mean, n = 26
METRIC: Cmax (ng/mL)
Numbers only, in ng/mL.

# input Would you mind telling me what Cmax value was observed for Nc1nc(Cl)nc2c1ncn2[C@H]1C[C@H](O)[C@@H](CO)O1 [Cladribine, 2-chloro-2′-deoxyadenosine] ?
# output 5.61

---

- TEST_NAME: Clinical study, dose response and absolute bioavailability: plasma cladribine after oral doses vs intravenous infusion
- Type: in vivo, human (patients with MS)
- ASSAY_SETUP: human; Oral Administration 3.0 mg (Batch N0120 3.0 mg tablets), plasma, Mean ± SD, n = 26
- Procedure: The objective of this study was to assess the systemic availability of cladribine after oral administration in two different fixed oral doses, in comparison with one fixed intravenous administration (reference formulation) in patients with MS (multiple sclerosis), and to evaluate the safety and tolerability of cladribine in this population. […] The plasma concentrations of cladribine were measured by a HPLC/MS/MS method. […] The limit of quantification was 100 pg/ml. […]
METRIC: half-life (h)
Give bare numbers, in h.

# input Would you mind telling me what half-life value was observed for Nc1nc(Cl)nc2c1ncn2[C@H]1C[C@H](O)[C@@H](CO)O1 [Cladribine, 2-chloro-2′-deoxyadenosine] ?
# output 5.85

---

- TEST_NAME: Clinical study, dose response and absolute bioavailability: plasma cladribine after oral doses vs intravenous infusion
- Format: in vivo, human (patients with MS)
- ASSAY_SETUP: human; Oral Administration 10.0 mg (Batch N0126 10.0 mg tablets), plasma, Geom Mean, n = 26
METRIC: AUC(0-inf) (ng·h/mL)
Give bare numbers, in ng·h/mL.

# input Would you mind telling me what AUC(0-inf) value was observed for Nc1nc(Cl)nc2c1ncn2[C@H]1C[C@H](O)[C@@H](CO)O1 [Cladribine, 2-chloro-2′-deoxyadenosine] ?
# output 76.7

---

- TEST_NAME: Clinical study, dose response and absolute bioavailability: plasma cladribine after oral doses vs intravenous infusion
- Format: in vivo, human (patients with MS)
- ASSAY_SETUP: human; Oral Administration 3.0 mg (Batch N0120 3.0 mg tablets), plasma, Geom Mean, n = 26
METRIC: AUC(0-t) (ng·h/mL)
Numbers only, in ng·h/mL.

# input Would you mind telling me what AUC(0-t) value was observed for Nc1nc(Cl)nc2c1ncn2[C@H]1C[C@H](O)[C@@H](CO)O1 [Cladribine, 2-chloro-2′-deoxyadenosine] ?
# output 19.2

---

- TEST_NAME: Clinical study, dose response and absolute bioavailability: plasma cladribine after oral doses vs intravenous infusion
- Type: in vivo, human (patients with MS)
- ASSAY_SETUP: human; 3.0 mg IV infusion (1 hour), plasma, Geom Mean, n = 26
METRIC: Cmax (ng/mL)
Numbers only, in ng/mL.

# input Would you mind telling me what Cmax value was observed for Nc1nc(Cl)nc2c1ncn2[C@H]1C[C@H](O)[C@@H](CO)O1 ?
# output 21.4

---

- TEST_NAME: Clinical study, dose response and absolute bioavailability: plasma cladribine after oral doses vs intravenous infusion
- Format: in vivo, human (patients with MS)
- ASSAY_SETUP: human; 3.0 mg IV infusion (1 hour), plasma, Geom Mean, n = 26
METRIC: AUC(0-t) (ng·h/mL)
Numbers only, in ng·h/mL.

# input Would you mind telling me what AUC(0-t) value was observed for Nc1nc(Cl)nc2c1ncn2[C@H]1C[C@H](O)[C@@H](CO)O1 ?
# output 56.4

---

- TEST_NAME: Clinical study, dose response and absolute bioavailability: plasma cladribine after oral doses vs intravenous infusion
- Type: in vivo, human (patients with MS)
- ASSAY_SETUP: human; 3.0 mg IV infusion (1 hour), plasma, Geom Mean, n = 26
METRIC: AUC(0-inf) (ng·h/mL)
Answers are plain numbers, in ng·h/mL.

# input Would you mind telling me what AUC(0-inf) value was observed for Nc1nc(Cl)nc2c1ncn2[C@H]1C[C@H](O)[C@@H](CO)O1 ?
# output 58.5

---

- TEST_NAME: Clinical study, dose response and absolute bioavailability: plasma cladribine after oral doses vs intravenous infusion
- Format: in vivo, human (patients with MS)
- ASSAY_SETUP: human; Oral Administration 10.0 mg (Batch N0126 10.0 mg tablets), plasma, Mean ± SD, n = 26
METRIC: half-life
Give your result as the value with the unit written after it.

# input Would you mind telling me what half-life value was observed for Nc1nc(Cl)nc2c1ncn2[C@H]1C[C@H](O)[C@@H](CO)O1 ?
# output 5.6 h

---

- TEST_NAME: Clinical study, dose response and absolute bioavailability: plasma cladribine after oral doses vs intravenous infusion
- Format: in vivo, human (patients with MS)
- ASSAY_SETUP: human; Oral Administration 10.0 mg (Batch N0126 10.0 mg tablets), plasma, Geom Mean, n = 26
METRIC: AUC(0-t) (ng·h/mL)
Answers are plain numbers, in ng·h/mL.

# input Would you mind telling me what AUC(0-t) value was observed for Nc1nc(Cl)nc2c1ncn2[C@H]1C[C@H](O)[C@@H](CO)O1 [Cladribine, 2-chloro-2′-deoxyadenosine] ?
# output 74.5

---

- TEST_NAME: Clinical study, dose response and absolute bioavailability: plasma cladribine after oral doses vs intravenous infusion
- Type: in vivo, human (patients with MS)
- ASSAY_SETUP: human; Oral Administration 3.0 mg (Batch N0120 3.0 mg tablets), plasma, Geom Mean, n = 26
METRIC: AUC(0-inf) (ng·h/mL)
One number for each entry, in ng·h/mL.

# input Would you mind telling me what AUC(0-inf) value was observed for Nc1nc(Cl)nc2c1ncn2[C@H]1C[C@H](O)[C@@H](CO)O1 [Cladribine, 2-chloro-2′-deoxyadenosine] ?
# output 20.2

Numbers sourced from patent US7888328B2.
